Target: HLA-A*30:01
Test: IEDB peptide-MHC binding, purified MHC/direct/fluorescence; filed as Kd, often an IC50 or EC50 that approximates it; bounds were set here for any values at or beyond the usual limits of such assays
Settings: source organism: Giardia lamblia ATCC 50803
Measurement label: pKd
Formally, pKd is defined as -log10 of the concentration c, with c in mol/L.

Identify the reported pKd for the following entry. KVGVYKMHK
7.82

====

Target: HLA-A*11:01
Test: IEDB peptide-MHC binding, purified MHC/direct/fluorescence; filed as Kd, often an IC50 or EC50 that approximates it; bounds were set here for any values at or beyond the usual limits of such assays
Settings: source organism: Giardia lamblia ATCC 50803
Measurement label: Kd

// known answers, use as guide
{"columns": ["Macromolecule sequence", "Kd"],
 "data": [
  ["DEKPKVMEG", "≥ 20 µM"],
  ["YLDMVLAFL", "≥ 20 µM"],
  ["KVGVYKMHK", "0.0334 µM"]
]}

# evaluate next
Return Kd for the following sequence: RTDPVIDNI
≥ 20 µM

====

Biological target: HLA-B*40:01
Test: IEDB peptide-MHC binding, purified MHC/direct/fluorescence; filed as Kd, often an IC50 or EC50 that approximates it; bounds were set here for any values at or beyond the usual limits of such assays
Conditions: source organism: Toxoplasma gondii
pKd: −log10 of the molar value.
Measurement label: pKd

Return the recorded pKd value; entry: AYMDRKSFK
≤ 4.70

====

Molecular target: HLA-A*31:01
Assay: IEDB peptide-MHC binding, purified MHC/competitive/radioactivity; filed as Kd, often an IC50 or EC50 that approximates it; bounds were set here for any values at or beyond the usual limits of such assays
Conditions: source organism: Lassa virus Josiah
Measurement label: pKd
Lab note: report pKd as minus log10 of the concentration in molar units, number only.

{"columns": ["Macromolecule sequence", "pKd"],
 "data": [
  ["MLQKEYMER", 7.00]
]}

Let's switch to this sequence now.
Look up and state reported pKd for QFKQDAKYSH
4.74

====

Biological target: HLA-B*15:09
Assay: IEDB peptide-MHC binding, purified MHC/competitive/fluorescence; filed as Kd, often an IC50 or EC50 that approximates it; bounds were set here for any values at or beyond the usual limits of such assays
Conditions: source organism: Influenza A virus H3N2
Measurement label: Kd (nM)
Expressed in nM, but write only the number.

// fetch Kd given entry FPNEVGARI
1130

====

Molecular target: HLA-B*08:01
Experiment: IEDB peptide-MHC binding, purified MHC/direct/fluorescence; filed as Kd, often an IC50 or EC50 that approximates it; bounds were set here for any values at or beyond the usual limits of such assays
Conditions: source organism: Pseudomonas aeruginosa UCBPP-PA14
pKd: −log10 of the molar value.
Measurement label: pKd

# return pKd of AYGSRFHEW (system: HLA-B*08:01)
≤ 4.70

====

Molecular target: HLA-B*15:01
Assay: IEDB peptide-MHC binding, purified MHC/direct/fluorescence; filed as Kd, often an IC50 or EC50 that approximates it; bounds were set here for any values at or beyond the usual limits of such assays
Details: source organism: SARS-CoV1
Measurement label: pKd
Note on units: pKd is unitless, being -log10 of a concentration expressed in mol/L.

Below, each entry is followed by its recorded pKd result.
{"columns": ["Macromolecule sequence", "pKd"],
 "data": [
  ["KQYNVTQAF", 7.06],
  ["LQSLENVAY", 6.79]
]}

With those in mind, consider the next sequence.
Tell us which pKd value is on record for LSDDAVVCY
6.32
